These data points were gathered from patent US20260167959A1.

- Tested on: Renilla luciferase RNA
- experiment-notes: Barcoded aptazyme variant library screen: un-cleaved Renilla luciferase RNA by barcode read counts, HEK293-T cells
- Format: cell-based
- condition-summary: un-cleaved Renilla luciferase RNA by barcode read counts; with 1 mM theophylline (ON) over without theophylline (OFF); HEK293-T cells; triplicate
As shown below, each of these molecules has a reported Fold change in RNA expression between the ON state and the OFF state value.
measurement-type: Fold change in RNA expression between the ON state and the OFF state

[[record]]
molecule = "RA372 (nucleic acid, expressed or natural sequence) DNA: GCGCGTCCTGGATTCGCGGAAACGCGTACATCCAGCTGACGAGTCCCAAACGAGAATACCAGCATCGTCTTGATGCCCTTGGAAGTCTCGTAGGACGAAACGCGC"
test_value = 0.8

[[record]]
molecule = "RA415 (nucleic acid, expressed or natural sequence) DNA: GCGCGTCCTGGATTCGCGGACCGGAATACCAGCATCGTCTTGATGCCCTTGGAAGTCCGGAACGCGTACATCCAGCTGACGAGTCCCAAATAGGACGAAACGCGC"
test_value = 0.7

[[record]]
molecule = "RA329 (nucleic acid, expressed or natural sequence) DNA: GCGCGTCCTGGATTCGCGGAAACGCGTACATCCAGCTGACGAGTCCCAAATAGGACGAAACAGTGATACCAGCATCGTCTTGATGCCCTTGGCAGCACTGCGC"
test_value = 0.9

[[record]]
molecule = "RA342 (nucleic acid, expressed or natural sequence) DNA: GCGCGTCCTGGATTCGCGGAAACGCGTACGGAATACCAGCATCGTCTTGATGCCCTTGGAAGTCCGCATCCAGCTGACGAGTCCCAAATAGGACGAAACGCGC"
test_value = 0.9

